target: Phospholipase D1 (Homo sapiens) (UniProt Q13393); test: PLD1 inhibitor potency in cells, dose response (AID 602151); settings: cellular PLD1 activity assay
Sequence (Q13393 whole entry, looked up): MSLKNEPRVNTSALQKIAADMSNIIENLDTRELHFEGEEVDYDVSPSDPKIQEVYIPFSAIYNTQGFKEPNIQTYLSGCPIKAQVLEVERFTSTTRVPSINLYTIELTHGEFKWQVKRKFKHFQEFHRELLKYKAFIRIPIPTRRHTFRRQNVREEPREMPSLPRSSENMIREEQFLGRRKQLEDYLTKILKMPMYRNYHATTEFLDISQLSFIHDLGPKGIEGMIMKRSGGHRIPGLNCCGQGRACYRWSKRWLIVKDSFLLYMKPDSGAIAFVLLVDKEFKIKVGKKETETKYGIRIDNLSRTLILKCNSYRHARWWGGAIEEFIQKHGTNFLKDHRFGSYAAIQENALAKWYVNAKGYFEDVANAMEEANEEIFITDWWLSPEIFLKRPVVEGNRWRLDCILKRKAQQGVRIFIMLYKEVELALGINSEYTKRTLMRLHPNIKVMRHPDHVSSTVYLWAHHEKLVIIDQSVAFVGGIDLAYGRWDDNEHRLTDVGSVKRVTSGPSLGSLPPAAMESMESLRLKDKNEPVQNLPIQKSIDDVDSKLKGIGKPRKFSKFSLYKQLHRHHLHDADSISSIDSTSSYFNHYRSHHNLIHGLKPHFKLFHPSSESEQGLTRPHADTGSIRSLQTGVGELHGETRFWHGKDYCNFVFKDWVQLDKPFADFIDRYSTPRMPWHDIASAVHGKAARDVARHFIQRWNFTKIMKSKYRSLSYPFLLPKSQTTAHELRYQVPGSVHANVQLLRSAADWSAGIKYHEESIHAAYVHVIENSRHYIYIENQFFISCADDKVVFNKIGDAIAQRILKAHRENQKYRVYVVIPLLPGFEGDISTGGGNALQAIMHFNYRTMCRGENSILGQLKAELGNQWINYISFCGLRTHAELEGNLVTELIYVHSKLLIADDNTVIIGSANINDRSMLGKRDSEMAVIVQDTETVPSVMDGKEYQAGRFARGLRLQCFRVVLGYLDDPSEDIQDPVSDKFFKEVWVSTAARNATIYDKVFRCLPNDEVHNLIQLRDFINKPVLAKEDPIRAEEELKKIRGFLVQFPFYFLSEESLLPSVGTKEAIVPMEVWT
Sequence (Q13393 whole entry, looked up): as above
property: pIC50
Keep it numeric: pIC50 is minus log10 of the concentration in mol/L.

- Cc1cccc(C(=O)N[C@@H](C)CN2CCC3(CC2)C(=O)NCN3c2ccccc2)c1: 5.47
- O=C(NCCN1CCC2(CC1)C(=O)NCN2c1ccc(Cl)cc1)c1ccc(F)cc1: 5.25
- O=C(C#Cc1ccccc1)NCCN1CCC2(CC1)C(=O)NCN2c1ccccc1: 5.67
- O=C(NCCN1CCC2(CC1)C(=O)NCN2c1ccc(Cl)cc1)c1ccc2ccccc2c1: 5.64

So, O=C(NCCN1CCC2(CC1)C(=O)NCN2c1ccccc1)c1cnc2ccccc2c1 ? Its pIC50 was 5.72

# pIC50 (compound: O=C(NCCN1CCC2(CC1)C(=O)NCN2c1ccc(F)cc1)c1ccc2ccccc2c1 ) is 5.77

According to the records, this compound O=C(NCCN1CCC2(CC1)C(=O)NCN2c1ccc(Cl)cc1)c1cc2cc(F)ccc2[nH]1 displays pIC50 of 6.47

Please fill in: pIC50 reported for O=C(NCCN1CCC2(CC1)C(=O)NCN2c1ccc(Br)cc1)c1ccc(F)cc1 = 5.00

Record summary for C[C@@H](CN1CCC2(CC1)C(=O)NCN2c1ccccc1)NC(=O)c1ccc(F)c(F)c1 : reported pIC50 = 6.82

What the record says about O=C(NCCN1CCC2(CC1)C(=O)NCN2c1ccc(F)cc1)c1cc2cc(F)ccc2[nH]1 : pIC50 is 6.54

For reference, reported pIC50 for O=C(NCCN1CCC2(CC1)C(=O)NCN2c1ccc(Br)cc1)c1ccc2ccccc2c1 stands at 5.23

Consider O=C(NCCN1CCC2(CC1)C(=O)NCN2c1ccc(F)c(F)c1)c1ccc2ccccc2c1 . Its measured pIC50 is 5.55

According to the records, this compound O=C(NCCN1CCC2(CC1)C(=O)NCN2c1ccc(F)c(F)c1)c1ccc(F)cc1 displays pIC50 of 5.24

Please fill in: pIC50 reported for O=C(NCCN1CCC2(CC1)C(=O)NCN2c1ccccc1)c1cc2ccccc2s1 = 6.82

Given item O=C(NCCN1CCC2(CC1)C(=O)NCN2c1ccc(F)cc1)c1ccc(F)cc1 , the value recorded as its pIC50 is 4.85

Input O=C(NCCN1CCC2(CC1)C(=O)NCN2c1ccc(F)c(F)c1)c1cc2cc(F)ccc2[nH]1 . Output pIC50: 6.41

O=C(NCCN1CCC2(CC1)C(=O)NCN2c1ccc(F)cc1)c1cnc2ccccc2c1 has a reported pIC50 of 5.70

Value of measured pIC50 for the entry O=C(NCCN1CCC2(CC1)C(=O)NCN2c1cccc(Cl)c1)c1cc2cc(F)ccc2[nH]1 : 6.60

Entry under test: COc1cc(C(=O)NCCN2CCC3(CC2)C(=O)NCN3c2ccccc2)ccc1N . Its pIC50 was 5.23

The measured pIC50 associated with O=C(NCCN1CCC2(CC1)C(=O)NCN2c1ccc(Br)cc1)c1cnc2ccccc2c1 reads 5.57
